experiment: NCI Yeast Anticancer Drug Screen. Data for the bub3 strain (AID 167); settings: S. cerevisiae bub3 mutant strain, at 50.0 µM (retest, dose inferred, filed as 5.0), stronger effect = higher value
About 79,000 compounds went through this panel and 15% of them were active in at least one assay; those are over-represented in the sample as a whole.
Listing of recorded growth inhibition by entry.
# output: bare number, implied unit %

Worked examples, 4 molecules total:
• CC(=O)N(C1=CC(=O)c2ccccc2C1=O)c1ccc(C)cc1 = 94
• O=C1OC(c2ccccc2)=N/C1=C\c1ccc(Oc2ccc(Cl)c(Cl)c2)cc1 = -1
• O=C1C(Sc2ccc3ccccc3c2)=C(Sc2ccc3ccccc3c2)C(=O)c2ccccc21 = 90
• O=C1C=CC(=C(c2ccccc2)c2ccc(O)cc2)C=C1 = 92

Consider the molecule shown here: `CCCN1CCN(c2ccc([N+](=O)[O-])c3no[n+]([O-])c23)CC1` What is its recorded growth inhibition?
98

Also need CN1N=C2c3ccccc3CC[C@H]2C1c1cccc(O)c1 (some centres not stated) , thanks.
78

Can you handle `O=P(O)(O)Oc1c(O)c2ccccc2c2ccccc12` next?
92

Also `C[CH2][Ge]([CH2]C)[CH2]C.C[CH2][Ge]([Cl])[CH2]C.C[CH2][Ge][CH2]C` , if possible.
96

And what about the molecule COc1cccc(C(c2cc3c(cc2O)OCO3)N2CCCC2)c1O (configuration not stated) ?
47

Proceed to Cc1ccc(O)c(C(C)c2ccccc2)c1 (configuration not stated)
98

// repeat for `O=C(O)Cc1ccc2ccccc2c1-c1ccccc1` and report
92

Now the same for `Cc1ccc(C(C)(C)c2ccc(C(=O)O)cc2)cc1`
-8

---

assay: NCI Yeast Anticancer Drug Screen. Data for the sgs1 mgt1 strain (AID 161);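 note: 0% = growth of cultures given vehicle only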; conditions: S. cerevisiae sgs1 mgt1 strain, at 50.0 µM, stronger effect = higher value
Compounds without any hit were thinned out: in the full panel of roughly 79,000, 15% have a hit. Calls of active or inactive are those of the source. Cut-off read from the data, not from the text of the source: active = growth inhibition above about 70%; inactive = the rest.
# growth inhibition per entry

Here is how some compounds turned out for growth inhibition.
* COC(=O)c1ccc(-c2ccccc2)cc1 | 98% (active)
* Cc1c2cnccc2c(C)c2c1c1ccccc1n2CCOC(=O)c1ccccc1 | 89.7% (active)
* CC(=O)O/N=C1/CCC2C3CC=C4CC(OC(C)=O)CCC4(C)C3CCC12C (stereo unspecified) | 89.9% (active)
* c1ccc(CCCCc2ccncc2)cc1 | 94% (active)
* CC(C)/C(Cl)=N/OC(NC(=O)Nc1ccc(Cl)c(Cl)c1)(C(F)(F)F)C(F)(F)F | 99.5% (active)
* O=C1C2C3CCC(O3)C2C(=O)N1c1cccc2ccccc12 (stereo unspecified) | 49% (inactive)
* C[CH2][Sn]([CH2]C)([O]C(=O)c1ccccc1OC)[O][Sn]([CH2]C)([CH2]C)[O]C(=O)c1ccccc1OC | 42.2% (inactive)
* COc1ccc(-c2csc(C)n2)cc1OC | 16.1% (inactive)

Form field: reported growth inhibition of `Nc1ccc2c(c1)NCCN2`
23.5% (inactive)

Moving on to the next compound: `COc1cccc(OC)c1C(=O)/C=C/c1ccccc1`
69.9% (inactive)

Moving on to CN1N=C2c3ccccc3CC[C@H]2C1c1cccc(O)c1 (stereo partly specified)
69.2% (inactive)

---

Reported growth inhibition values for the following compounds.
test: NCI Yeast Anticancer Drug Screen. Data for the sgs1 mgt1 strain (AID 161);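 note: 0% = growth of cultures given vehicle only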; details: S. cerevisiae sgs1 mgt1 strain, at 50.0 µM (retest, dose inferred, filed as 5.0), stronger effect = higher value
About 79,000 compounds went through this panel and 15% of them were active in at least one assay; those are over-represented in the sample as a whole.
All answers are understood in %, so give the number only.

Recorded growth inhibition, per entry:
* CCc1ccc(/C(C)=N/NC(N)=S)cc1 | 91
* Nc1cn(C2OC(CC(c3ccccc3)(c3ccccc3)c3ccccc3)C(O)C2O)c(=O)[nH]c1=O (stereo not given) | 99
* CN(C)CCCSc1c2ccccc2nc2cc(NCC(=O)Nc3ccccc3-c3ccccc3NC(=O)CNc3ccc4c(SCCCN(C)C)c5ccccc5nc4c3)ccc12 | 98
* Brc1ccc2[nH]c3nc4ccc5ccccc5c4nc3c2c1 | 0

Then this compound:
Given `N#Cc1c(-c2ccc(Cl)c(Cl)c2)c(-c2ccc(Cl)c(Cl)c2)nn(CC(=O)O)c1=O` , state its recorded growth inhibition.
98

---

test: NCI Yeast Anticancer Drug Screen. Data for the rad50 strain (AID 155);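 note: 0% = growth of vehicle-only cultures of the same strain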; settings: S. cerevisiae rad50 strain growth inhibition; at 50.0 µM (retest, dose inferred, filed as 5.0); stronger effect = higher value
Compounds without any hit were thinned out: in the full panel of roughly 79,000, 15% have a hit.
Label rule, in plain words: growth inhibition of 70% and up is 1, under 70% is -1.

• CCOC(=O)c1cc(Cl)nc2ccc(OC)cc12 = -1
• CCCCCCCCCCCCCC[N+]1(CC)CCCCC1 = 1
• C=C(Br)CN(CC(=C)Br)C(C)=O = -1
• COC(=O)c1cc(-c2ccc(C)cc2)c2c(=O)n(-c3ccccc3)[nH]c2n1 = 1
• O=C1C=C(Cl)C(=O)C(Cl)=C1Cl = 1

Hello, I need to know if `COc1cc(/C=C/C(=O)Sc2ccccc2)cc(OC)c1O` has measured growth inhibition not below 70%. Thanks!
-1

Query Clc1ccc(OCC(Cn2ccnc2)c2ccc(Cl)cc2)cc1 (stereo not drawn) next
1

Another: `CCCCCCCCCCCCNC(=O)c1ccc[n+](Cc2ccc(Cl)c(Cl)c2)c1`
1

Now give it for `COc1cc(C=O)c(C=O)cc1OC` too.
1

Item: CCCCCCCCCCCCCCC/C([O-])=N/[N+](C)(C)CC(C)O (stereo not drawn)
1

Again, but for CC(O)CCc1nc2ccccc2[nH]1 (stereo not drawn)
-1

// next record `CCOC(=O)c1cn(CC)c2cc(-n3cccc3)ccc2c1=O`
-1

Please do the same for `Nn1c2ccccc2c2ccccc21` as well.
-1

---

assay: NCI Yeast Anticancer Drug Screen. Data for the cln2 rad14 strain (AID 165);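 note: 0% = growth equal to vehicle treated cultures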; conditions: S. cerevisiae cln2 rad14 strain, at 50.0 µM (retest, dose inferred, filed as 5.0), stronger effect = higher value
Compounds without any hit were thinned out: in the full panel of roughly 79,000, 15% have a hit. Active and inactive are the calls of the source. Rule as the data show it: active = growth inhibition above about 70%; inactive = the rest.
Recorded endpoint: growth inhibition

Solved entries:
* CN1C(=O)c2cccc3cc([N+](=O)[O-])cc(c23)C1=O | 80% (active)
* O=C1C=CC(=O)N1c1ccc2c(c1)Cc1cc(Cl)ccc1-2 | 27% (inactive)

Would you kindly share the measured growth inhibition for Clc1ccc(C(CCOc2ccccc2Br)Cn2ccnc2)c(Cl)c1 (stereo unspecified) ?
99% (active)

Try CC(=O)c1ccc2c(c1)CC1(C2)Cc2ccccc2C1=O (stereo unspecified) next.
-13% (inactive)

Param item: `O=C1C(Br)=C(Sc2ccc([N+](=O)[O-])cc2)C(=O)c2ccccc21`
91% (active)

`O=C(Nc1cc(-c2ccccc2)[nH]n1)c1ccccc1` ?
25% (inactive)

Same read-out for `Cc1cc(NCCCCCCCCNc2cc(C)nc3cc(N(C)C)ccc23)c2ccc(N(C)C)cc2n1` ?
97% (active)

What would you report for N#CC(Nc1cccc(C(F)(F)F)c1)c1ccccc1C(F)(F)F (stereo unspecified) ?
46% (inactive)

Similarly, CCC(C)(O)C#Cc1ccc(C)nc1 (stereo unspecified) ?
-1% (inactive)

What about this molecule? `CCOC(=O)c1ccc(-c2cccs2)n1C`
0% (inactive)

Repeat with `O=[N+]([O-])c1c[nH]c2ncnc(SCc3ccccc3)c12`
99% (active)

---

assay: NCI Yeast Anticancer Drug Screen. Data for the sgs1 mgt1 strain (AID 161);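 note: 0% = growth of cultures given vehicle only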; settings: S. cerevisiae sgs1 mgt1 strain, at 50.0 µM (retest, dose inferred, filed as 5.0), stronger effect = higher value
This is part of a sample that, as a whole, favours compounds with a hit. Of some 79,000 tested, about 15% had one in any assay.
Items are presented alongside their recorded growth inhibition.
Give the value, in units of %, as a plain number.

Worked set:
- CSc1nc2ccccc2s1: 4
- O=Nc1ccc(O)c(/C=N/O)c1: 90
- Cn1c2c(c3nc(N)nc(N)c3c1=O)CCc1ccccc1-2: 39
- O=C(N/C(=C\c1ccc(Oc2ccc(Cl)c(Cl)c2)cc1)c1nc2ccccc2[nH]1)c1ccccc1: 97
- CCCCCCCCCCNC(=O)C[n+]1cccc(C(=O)Nc2ccccc2)c1: 100
- O=C(NNc1ccccc1)C(O)C(=O)C(O)C(O)C(O)CO (stereo not drawn): 6

Record request: growth inhibition value, item O=CC1(c2ccc(Cl)cc2)NC(=O)NC1=O (stereo not drawn)
2

---

assay: NCI Yeast Anticancer Drug Screen. Data for the bub3 strain (AID 167); settings: S. cerevisiae bub3 mutant strain, at 50.0 µM, stronger effect = higher value
About 79,000 compounds went through this panel and 15% of them were active in at least one assay; those are over-represented in the sample as a whole. Where a SMILES comes first, the peptide text is derived from it. The star is where a group is joined. Cbz = O=C(OCc1ccccc1)*
growth inhibition: recorded values
# output: bare number, implied unit %

Example entries begin here.
• COc1ccc(CCNC(=S)/N=C\C(C(=O)c2ccccc2)=C(\O)c2ccccc2)cc1OC = 98.8
• Cc1ccc(C(OS(=O)(=O)c2ccc(C)cc2)C(F)(F)F)cc1 (stereo not given) = 1.7
• CCOC(=O)CNC(=O)CNC(=O)CNC(=O)OCc1ccccc1 (Cbz-Gly-Gly-Gly-OEt) = 13.8
• CC(C)c1cc2c(cc1O)C[C@@]1(O)CCCC(C)(C)C1CC2 (stereo not given in full) = 91.2

What value of growth inhibition has been reported for the following molecule? CC(C)CC(CC(C)C)NCC(C)OC(=O)C(c1ccccc1)c1ccccc1 (stereo not given)
68.2
